system: Enterococcus faecalis; assay: Antibacterial activity against Enterococcus faecalis 27251.; format: functional
PROPERTY_MEASURED: MIC (µg/mL)

COC(=O)c1c(Br)c(OC)cc(O)c1CSC[C@H](Nc1nc(-c2ccc([N+](=O)[O-])cc2)cs1)c1nc(C)no1; 0.5

A. COC(=O)c1c(Br)c(OC)cc(O)c1CSC[C@H](Nc1nc(-c2ccc([N+](=O)[O-])cc2)cs1)C1=NOCCO1
B. COC(=O)c1c(Br)c(OC)cc(O)c1CSC[C@H](Nc1nc(-c2ccc([N+](=O)[O-])cc2)cs1)C(=O)OC
[in] Looking only at measured MIC, which entry is lower, A or B ? Write the label of whichever entry you select.
[out] A

---

test system: Streptococcus pyogenes; test: Antibacterial activity against Streptococcus pyogenes Wacker.; assay type: functional
PROPERTY_MEASURED: MIC (µg/mL)

COC(=O)c1c(Br)c(OC)cc(O)c1CSC[C@H](Nc1nc(-c2ccc([N+](=O)[O-])cc2)cs1)c1nc(C)no1; 0.25

1. COC(=O)c1c(Br)c(OC)cc(O)c1CSC[C@H](Nc1nc(-c2ccc([N+](=O)[O-])cc2)cs1)C(=O)OC
2. COC(=O)c1c(Br)c(OC)cc(O)c1CSC[C@H](Nc1nc(-c2ccc([N+](=O)[O-])cc2)cs1)C1=NOCCO1
[in] Which value of MIC is greater, the one for 1 or the one for 2 ? Your answer should be the label attached to the chosen record.
[out] 1

---

Target chain: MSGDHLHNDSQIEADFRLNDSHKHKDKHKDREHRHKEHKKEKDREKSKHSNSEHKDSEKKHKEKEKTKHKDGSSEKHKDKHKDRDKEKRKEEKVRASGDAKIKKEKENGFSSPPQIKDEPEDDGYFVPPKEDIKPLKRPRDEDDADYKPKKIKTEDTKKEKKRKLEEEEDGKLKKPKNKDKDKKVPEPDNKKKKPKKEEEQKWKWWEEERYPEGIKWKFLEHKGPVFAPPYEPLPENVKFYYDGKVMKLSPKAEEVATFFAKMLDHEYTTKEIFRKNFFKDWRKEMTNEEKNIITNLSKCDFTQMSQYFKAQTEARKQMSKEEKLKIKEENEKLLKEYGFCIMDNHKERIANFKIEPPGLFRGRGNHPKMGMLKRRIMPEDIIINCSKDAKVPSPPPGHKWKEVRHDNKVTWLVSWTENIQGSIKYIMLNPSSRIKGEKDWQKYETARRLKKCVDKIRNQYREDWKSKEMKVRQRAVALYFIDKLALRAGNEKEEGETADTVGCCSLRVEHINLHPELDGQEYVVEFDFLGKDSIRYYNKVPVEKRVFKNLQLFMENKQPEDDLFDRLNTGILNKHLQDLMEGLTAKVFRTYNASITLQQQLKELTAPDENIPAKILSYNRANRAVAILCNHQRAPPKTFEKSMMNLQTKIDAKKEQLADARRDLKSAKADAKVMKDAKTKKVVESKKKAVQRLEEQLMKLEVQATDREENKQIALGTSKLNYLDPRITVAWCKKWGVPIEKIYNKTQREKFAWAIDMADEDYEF
PROPERTY_MEASURED: IC50

[in] Supply recorded IC50 for COC(=O)c1c(Br)c(OC)cc(O)c1CSC[C@H](Nc1nc(-c2ccc([N+](=O)[O-])cc2)cs1)c1nc(C)no1 here.
[out] > 377 µM

---

test system: Streptococcus pyogenes; assay: Antibacterial activity against Streptococcus pyogenes 7029.; format: functional
PROPERTY_MEASURED: MIC (µg/mL)

COC(=O)c1c(Br)c(OC)cc(O)c1CSC[C@H](Nc1nc(-c2ccc([N+](=O)[O-])cc2)cs1)C1=NOCCO1; 0.5

A. COC(=O)c1c(Br)c(OC)cc(O)c1CSC[C@H](Nc1nc(-c2ccc([N+](=O)[O-])cc2)cs1)c1nc(C)no1
B. COC(=O)c1c(Br)c(OC)cc(O)c1CSC[C@H](Nc1nc(-c2ccc([N+](=O)[O-])cc2)cs1)C(=O)OC
[in] Please let me know which one, A or B , has a lower measured MIC value. Response format: the label of the selected entry.
[out] A

---

tested on: Enterococcus faecalis; assay: Antibacterial activity against Enterococcus faecalis 27253.; type: functional
PROPERTY_MEASURED: MIC (µg/mL)

COC(=O)c1c(Br)c(OC)cc(O)c1CSC[C@H](Nc1nc(-c2ccc([N+](=O)[O-])cc2)cs1)c1nc(C)no1; 0.25

a. COC(=O)c1c(Br)c(OC)cc(O)c1CSC[C@H](Nc1nc(-c2ccc([N+](=O)[O-])cc2)cs1)C(=O)OC
b. COC(=O)c1c(Br)c(OC)cc(O)c1CSC[C@H](Nc1nc(-c2ccc([N+](=O)[O-])cc2)cs1)C1=NOCCO1
[in] Quick one: lower MIC, a or b ? Returns: label corresponding to the selected item.
[out] b
(b: 0.5 µg/mL, a: 1 µg/mL)

---

tested on: Streptococcus pyogenes; experiment: Antibacterial activity against Streptococcus pyogenes 4851.; type: functional
PROPERTY_MEASURED: MIC (µg/mL)

COC(=O)c1c(Br)c(OC)cc(O)c1CSC[C@H](Nc1nc(-c2ccc([N+](=O)[O-])cc2)cs1)C1=NOCCO1; 0.25

a. COC(=O)c1c(Br)c(OC)cc(O)c1CSC[C@H](Nc1nc(-c2ccc([N+](=O)[O-])cc2)cs1)c1nc(C)no1
b. COC(=O)c1c(Br)c(OC)cc(O)c1CSC[C@H](Nc1nc(-c2ccc([N+](=O)[O-])cc2)cs1)C(=O)OC
[in] Lab notebook, comparison: a versus b , higher MIC goes to which? Pick one; state its label.
[out] b
(b: 1 µg/mL, a: 0.25 µg/mL)

---

test system: Staphylococcus aureus; experiment: Antibacterial activity against Staphylococcus aureus 9TV.; type: functional
PROPERTY_MEASURED: MIC (µg/mL)

COC(=O)c1c(Br)c(OC)cc(O)c1CSC[C@H](Nc1nc(-c2ccc([N+](=O)[O-])cc2)cs1)c1nc(C)no1; 0.25

I. COC(=O)c1c(Br)c(OC)cc(O)c1CSC[C@H](Nc1nc(-c2ccc([N+](=O)[O-])cc2)cs1)C1=NOCCO1
II. COC(=O)c1c(Br)c(OC)cc(O)c1CSC[C@H](Nc1nc(-c2ccc([N+](=O)[O-])cc2)cs1)C(=O)OC
[in] Among I and II , which shows a numerically higher MIC result? Indicate which entry you chose by stating its label.
[out] II
